Assay: Plasma levels in an experimental mouse model of TB
Conditions: in vivo, po, 5 mg/kg
measured_attribute: Cmax (ng/mL)
Please give a number only; it is taken to be in ng/mL.

Task item: Please give the measured Cmax for this molecule: `CO[C@H]1/C=C/O[C@@]2(C)Oc3c(C)c(O)c4c(O)c(c(/C=N/N5CCN(C)CC5)c(O)c4c3C2=O)NC(=O)/C(C)=C\C=C\[C@H](C)[C@H](O)[C@@H](C)[C@@H](O)[C@@H](C)[C@H](OC(C)=O)[C@@H]1C`
Reply: 5100
